system: OVCAR-8 ovarian; test: NCI-60 one-dose screen, 48 h (100 = growth as untreated, 0 = no growth, -100 = all killed); conditions: 10 µM unless noted
The panel holds about 83,000 compounds, 20% with a hit somewhere; the sample as a whole holds those more often.
Lab note: anything with growth below 50% is marked Satisfied; values at 50% or higher are marked Not satisfied.

{"COMPOUND STRUCTURE": "C/C=C/[C@@H]1C=C[C@@H]2C[C@H](C)CC[C@H]2[C@]1(C)/C(O)=C1/C(=O)[C@H](CO)N(C)C1=O", "CLASS LABEL": "Satisfied"}
{"COMPOUND STRUCTURE": "CCCCCc1ccc(S(=O)(=O)N(C(C)=O)c2cccc(-c3csc(N(CCN4CCN(C)CC4)C(C)=O)n3)c2)cc1", "CLASS LABEL": "Not satisfied"}
{"COMPOUND STRUCTURE": "O=C(NCCCNc1cc(-c2cn(-c3ccccc3)nc2-c2cccc(O)c2)ccn1)Nc1ccc(F)cc1", "CLASS LABEL": "Satisfied"}
{"COMPOUND STRUCTURE": "O=C(CSc1nnc(-c2cccs2)n1-c1ccccc1)Nc1ccc(F)cc1", "CLASS LABEL": "Not satisfied"}
{"COMPOUND STRUCTURE": "O=S(=O)(Nc1cc(Cl)c(F)c(Cl)c1)c1ccc(-c2cnc(C3CC3)o2)cc1", "CLASS LABEL": "Satisfied"}
{"COMPOUND STRUCTURE": "IP(CCCCCCCCCCSc1n(Cc2ccc3ccccc3c2)c(-c2ccccc2)c(-c2ccccc2)[n+]1Cc1ccc2ccccc2c1)(c1ccccc1)(c1ccccc1)c1ccccc1", "CLASS LABEL": "Satisfied"}
{"COMPOUND STRUCTURE": "N#C/C(=C\\c1ccc2ccccc2c1)C(=O)Nc1sc2c(c1C#N)CCC2", "CLASS LABEL": "Not satisfied"}
